- assayed system: T1, 417N/484K/501Y RBD mutant (SARS-CoV-2, Wuhan-Hu-1 RBD backbone …, 417N | 484K | 501Y)
- T1 construct: also called RBD KEN
- experimental details: BLI
- condition notes: both partners purified
Listing of entries alongside the reported Kd.
measured endpoint: Kd (nM)

- V053 (antibody, V domains shown, IgG; donor BRA15; source: recombinant monoclonal IgG, produced and purified as previously described) VH: QVQLVQSGAEVKKPGASVKVSCKASGYTFTSYYMHWVRQAPGQGLEWMGIINPSAGSTTYAQKFQGRVTMTSDTSTSTVYMELSSLKSEDTAVYYCARDFVLVPASYGMDVWGQGTTVTVSS VL: QSVLTQPASVSGSPGQSITISCTGTSSDVGSYNLVSWFQQHPGKAPKLMIYQVSKRPSGASNRFSGSKSGNTASLTISGLQAEDEADYYCCSYAGSSTVWVFGGGTKLTVL: 2.49
- V057 (antibody, V domains shown, IgG; donor BRA15; source: recombinant monoclonal IgG, produced and purified as previously described) VH: EVQLVESGGGLVQPGRSLRLSCAASGFTFGDYAMHWVRQAPGKGLEWVSGISWNSGIIGQADSVKGRFTISRDNAKNSLYLQMNSLRVEDTALYYCAKGGGESVEVPADEKLDYWGQGTLVTVSS VL: QSVLTQPPSVSGAPGQRVTISCTGSSSNIGAGYDVHWYQQLPGTAPKLLIYGNNNRPSGVPDRFSGSKSGTSASLAITGLQAEDEADYYCQSYDSSLSGSWVFGGGTKLTVL: 22
- V063 (antibody, V domains shown, IgG; donor BRA15; source: recombinant monoclonal IgG, produced and purified as previously described) VH: QVQLVESGGGVVQPGRSLRLSCAASGFPFSSFGMHWVRQAPGKGLEWVAVISSDGSNKYYADSVKGRFTISRDNSKNTLYLQMNSLRAEDTAVYYCAKEFTYVVVTAFWGTENFDIWGQGTMVTVSS VL: DIQMTQSPSTLSASVGDRVTITCRASQSISSWLAWYQQKPGKAPNLLIYKASALESGVPSRFSGSGSGTEFTLTISSLQPDDFATYYCQQYNSYPITFGQGTRLEIK: 3.34
